Item-by-item account of grading of solution
experiment: Formation of solutions of nitrapyrin salts at 20% w/w nitrapyrin and grading of solutions; type: physicochemical; design: key: 5: Fully dissolved; 4: Mostly dissolved; 3: Mostly not dissolved; 2: Not dissolved; 1: Additional precipitate; settings: solvent triacetin (G)
Please state the value as a number alone, without comment.

{"columns": ["molecule", "grading of solution"],
 "data": [
  ["O=C(O)C(O)C(O)C(=O)O (centres unmarked)", 2]
]}

**Q:** What grading of solution value was documented for this molecule, `CC(O)(P(=O)(O)O)P(=O)(O)O.Clc1cccc(C(Cl)(Cl)Cl)n1.Clc1cccc(C(Cl)(Cl)Cl)n1.Clc1cccc(C(Cl)(Cl)Cl)n1.Clc1cccc(C(Cl)(Cl)Cl)n1` ?
**A:** 2

**Q:** Given the molecule `Clc1cccc(C(Cl)(Cl)Cl)n1.Clc1cccc(C(Cl)(Cl)Cl)n1.O=C(O)c1cccc(C(=O)O)c1` , what is its reported grading of solution?
**A:** 3

**Q:** Need grading of solution, item `O=C(O)CCC(=O)O`
**A:** 2

**Q:** # get_value(readout='grading of solution', item= `Clc1cccc(C(Cl)(Cl)Cl)n1.Clc1cccc(C(Cl)(Cl)Cl)n1.O=C(O)CC(O)C(=O)O` )
**A:** 3
